Hello, the source for this data is patent US10118935B2, in case you need it.

Test system: MCF7
EXPERIMENT: NCI 60 cell line five dose, Breast Cancer
CONDITION_LABEL: read-out: LC50, molar

- COMPOUND: "C=C1C(=O)O[C@H]2[C@H]1CC/C(COC(=O)NCCCCCCCCNC(=O)OC/C1=C/CC[C@@]3(C)O[C@H]3[C@H]3OC(=O)C(=C)[C@@H]3CC1)=C\\CC[C@@]1(C)O[C@@H]21 [JVM 3-62]"
  CC50: "4.3 µM"

###

Tested on: SF-268
EXPERIMENT: NCI 60 cell line five dose, CNS Cancer
CONDITION_LABEL: read-out: LC50, molar

- CHEMICAL_STRUCTURE: "C=C1C(=O)O[C@H]2[C@H]1CC/C(COC(=O)NCCCCCCCCNC(=O)OC/C1=C/CC[C@@]3(C)O[C@H]3[C@H]3OC(=O)C(=C)[C@@H]3CC1)=C\\CC[C@@]1(C)O[C@@H]21"
  CC50, µM: 7.24

###

System: SF-268
EXPERIMENT: NCI 60 cell line five dose, CNS Cancer

- MOLECULE: "C=C1C(=O)O[C@H]2[C@H]1CC/C(COC(=O)CCC(=O)NCCCCCCCCCNC(=O)CCC(=O)OC/C1=C/CC[C@@]3(C)O[C@H]3[C@H]3OC(=O)C(=C)[C@@H]3CC1)=C\\CC[C@@]1(C)O[C@@H]21 [JVM 2-92]"
  GI50 (µM): 2.92
- MOLECULE: "C=C1C(=O)O[C@H]2[C@H]1CC/C(COC(=O)CCC(=O)NCCCCCCCCNC(=O)CCC(=O)OC/C1=C/CC[C@@]3(C)O[C@H]3[C@H]3OC(=O)C(=C)[C@@H]3CC1)=C\\CC[C@@]1(C)O[C@@H]21 [JVM 2-87]"
  GI50 (µM): 3.34
- MOLECULE: "C=C1C(=O)O[C@H]2[C@H]1CC/C(COC(=O)NCCCCNC(=O)OC/C1=C/CC[C@@]3(C)O[C@H]3[C@H]3OC(=O)C(=C)[C@@H]3CC1)=C\\CC[C@@]1(C)O[C@@H]21 [JVM 3-54]"
  GI50 (µM): 3.18
- MOLECULE: "C=C1C(=O)O[C@H]2[C@H]1CC/C(COC(=O)NCCCCCNC(=O)OC/C1=C/CC[C@@]3(C)O[C@H]3[C@H]3OC(=O)C(=C)[C@@H]3CC1)=C\\CC[C@@]1(C)O[C@@H]21 [JVM 2-76]"
  GI50 (µM): 3.08

###

System: SK-MEL-28
EXPERIMENT: NCI 60 cell line five dose, Melanoma
CONDITION_LABEL: read-out: LC50
MEASURED_ENDPOINT: CC50 (µM)

- COMPOUND: "C=C1C(=O)O[C@H]2[C@H]1CC/C(COC(=O)NCCCCNC(=O)OC/C1=C/CC[C@@]3(C)O[C@H]3[C@H]3OC(=O)C(=C)[C@@H]3CC1)=C\\CC[C@@]1(C)O[C@@H]21 [JVM 3-54]"
  EXPERIMENTAL_TARGET: "SK-MEL-28"
  MEASURED_ENDPOINT: "CC50"
  OBS_VALUE: 8.08

###

# SW-620: CC50 values follow

- CHEMICAL_STRUCTURE: "C=C1C(=O)O[C@H]2[C@H]1CC/C(COC(=O)CCC(=O)NCCCCCCCCNC(=O)CCC(=O)OC/C1=C/CC[C@@]3(C)O[C@H]3[C@H]3OC(=O)C(=C)[C@@H]3CC1)=C\\CC[C@@]1(C)O[C@@H]21"
  CC50: "7.2 µM"
- CHEMICAL_STRUCTURE: "C=C1C(=O)O[C@H]2[C@H]1CC/C(COC(=O)CCC(=O)NCCCCCCCCCNC(=O)CCC(=O)OC/C1=C/CC[C@@]3(C)O[C@H]3[C@H]3OC(=O)C(=C)[C@@H]3CC1)=C\\CC[C@@]1(C)O[C@@H]21"
  CC50: "6.14 µM"
